- study-conditions: in n-butanol, 278.55 K
property-label: solubility (mole fraction)

Q. Entry under review: "COC(=O)c1nc[nH]n1" . Reported solubility (mole fraction)?
A. 0.00199

###

- study-conditions: in THF, 289.05 K
property-label: solubility (mole fraction)
One number for each entry.

Q. Entry under review: "COC(=O)c1nc[nH]n1" . Reported solubility (mole fraction)?
A. 0.00196

###

- study-conditions: in THF, 303.05 K
property-label: solubility (mole fraction)
Numbers only.

Q. Entry under review: "COC(=O)c1nc[nH]n1" . Reported solubility (mole fraction)?
A. 0.00419

###

- study-conditions: in n-butanol, 297.15 K
property-label: solubility (mole fraction)
Numbers only.

Q. Entry under review: "COC(=O)c1nc[nH]n1" . Reported solubility (mole fraction)?
A. 0.00326

Data credit: BigSolDB 2.1
